Hey, just so you know, these numbers are from ChEMBL document CHEMBL3885861.

Organism: Rattus norvegicus
assay-procedure: Open TG-GATES - Regimen: Single
Format: toxicity, organism-based, Sprague-Dawley
Parameters: regimen Single, gender Male, age 6 weeks
assay-context: in vivo, po, 1000 mg/kg, 6 h, tissue Blood, route gavage, dose level High
value-type: MCV (fL)
Answers are plain numbers, in fL.

Some solved entries appear below for comparison.
INSERT INTO measurements (compound, numeric_value) VALUES
  ('O=C(O)c1cn(C2CC2)c2cc(N3CCNCC3)c(F)cc2c1=O', 67.5),
  ('Clc1ccccc1CN1CCc2sccc2C1', 61.4),
  ('O=C(O)c1cc(/N=N/c2ccc(S(=O)(=O)Nc3ccccn3)cc2)ccc1O', 62.2),
  ('CCc1cc(C(N)=S)ccn1 [ETHIONAMIDE]', 65.3);

Enquiry: Request the reported MCV associated with `C[C@H](CS)C(=O)N1CCC[C@H]1C(=O)O`
Return: 63.9

---

So I've got a bunch of molecules here, and I need their KIDNEY_R values.
Organism: Rattus norvegicus
assay-procedure: Open TG-GATES - Regimen: Single
Type: toxicity, organism-based, Sprague-Dawley
Design: regimen Single, gender Male, age 6 weeks
assay-context: in vivo, po, 0 mg/kg, 9 h, tissue Kidney, route gavage, dose level Control
One number for each entry, in g.

Some solved entries appear below for comparison.
INSERT INTO measurements (molecule, value_type, endpoint_unit, numeric_value) VALUES
  ('O=C(O)c1cc(/N=N/c2ccc(S(=O)(=O)Nc3ccccn3)cc2)ccc1O [SULFASALAZINE]', 'KIDNEY_R', 'g', 0.9),
  ('CC(=O)Oc1ccccc1C(=O)O [ASPIRIN]', 'KIDNEY_R', 'g', 0.9),
  ('Cn1c(=O)c2[nH]cnc2n(C)c1=O.O [THEOPHYLLINE]', 'KIDNEY_R', 'g', 1);

Please go through the list and note KIDNEY_R for each molecule.
1. NC(=O)N/N=C/c1ccc([N+](=O)[O-])o1 [NITROFURAZONE]
2. C[C@H](CS)C(=O)N1CCC[C@H]1C(=O)O [CAPTOPRIL]
3. CN(C)CCC=C1c2ccccc2CCc2ccccc21 [AMITRIPTYLINE]
4. CSc1ccc2c(c1)N(CCC1CCCCN1C)c1ccccc1S2 (configuration not stated) [THIORIDAZINE]
5. CCc1cc(C(N)=S)ccn1 [ETHIONAMIDE]
6. O=C(O)c1cn(C2CC2)c2cc(N3CCNCC3)c(F)cc2c1=O [CIPROFLOXACIN]
7. NC(=O)N1c2ccccc2C=Cc2ccccc21 [CARBAMAZEPINE]

Return:
1: 0.8; 2: 1; 3: 0.9; 4: 1; 5: 1; 6: 0.8; 7: 1

Please go through the list and note KIDNEY_R for each molecule.
1. Clc1ccccc1CN1CCc2sccc2C1 [TICLOPIDINE]
2. COc1ccc(Cc2nccc3cc(OC)c(OC)cc23)cc1OC [PAPAVERINE]

Return:
[0.9, 0.9]

---

Species: Rattus norvegicus
assay-procedure: Open TG-GATES - Regimen: Single
Assay type: toxicity, organism-based, Sprague-Dawley
Parameters: regimen Single, gender Male, age 6 weeks
assay-context: in vivo, po, 100 mg/kg, 6 h, tissue Plasma, route gavage, dose level Low
value-type: PL (mg/dL)
Answers are plain numbers, in mg/dL.

Some solved entries appear below for comparison.
INSERT INTO assay_data (compound, endpoint_unit, numeric_value) VALUES
  ('CCc1cc(C(N)=S)ccn1 [ETHIONAMIDE]', 'mg/dL', 126),
  ('O=C(O)c1cc(/N=N/c2ccc(S(=O)(=O)Nc3ccccn3)cc2)ccc1O', 'mg/dL', 148),
  ('O=C(O)c1cn(C2CC2)c2cc(N3CCNCC3)c(F)cc2c1=O', 'mg/dL', 128.2),
  ('C[C@H](CS)C(=O)N1CCC[C@H]1C(=O)O', 'mg/dL', 130.6);

Enquiry: Request the reported PL associated with `Clc1ccccc1CN1CCc2sccc2C1`
Return: 137.2

---

Species: Rattus norvegicus
assay-procedure: Open TG-GATES - Regimen: Single
Assay type: toxicity, organism-based, Sprague-Dawley
Parameters: regimen Single, gender Male, age 6 weeks
assay-context: in vivo, po, 1000 mg/kg, 3 h, tissue Plasma, route gavage, dose level High
So I've got a bunch of compounds here, and I need their TG values.
Give bare numbers, in mg/dL.

Some solved entries appear below for comparison.
INSERT INTO assay_data (compound, numeric_value) VALUES
  ('O=C(O)c1cc(/N=N/c2ccc(S(=O)(=O)Nc3ccccn3)cc2)ccc1O', 46.2),
  ('C[C@H](CS)C(=O)N1CCC[C@H]1C(=O)O', 53.8),
  ('CCc1cc(C(N)=S)ccn1 [ETHIONAMIDE]', 46);

Here is the next item to consider.
Enquiry: Request the reported TG associated with `O=C(O)c1cn(C2CC2)c2cc(N3CCNCC3)c(F)cc2c1=O`
Return: 47

---

Organism: Rattus norvegicus
assay-procedure: Open TG-GATES - Regimen: Daily Repeat
Assay type: toxicity, organism-based, Sprague-Dawley
Design: regimen Daily Repeat, gender Male, age 6 weeks
assay-context: in vivo, po, 0 mg/kg, […], tissue Blood, route gavage, dose level Control, time 14 day
Response field label takes y when Lym is strictly below 80% and n in all other cases.

Sample answers from the record:
INSERT INTO measurements (smiles_data, assigned_label) VALUES
  ('COc1ccc2c(c1)c(CC(=O)O)c(C)n2C(=O)c1ccc(Cl)cc1', 'n'),
  ('CN(C)CCC=C1c2ccccc2CCc2ccccc21', 'y');

Enquiry: Is Lym strictly under 80% for the entry `CC(=O)Oc1ccccc1C(=O)O` ?
Return: n

---

Organism: Rattus norvegicus
assay-procedure: Open TG-GATES - Regimen: Single
Format: toxicity, organism-based, Sprague-Dawley
Set-up: regimen Single, gender Male, age 6 weeks
assay-context: in vivo, po, 1000 mg/kg, 6 h, tissue Plasma, route gavage, dose level High
So I've got a bunch of molecules here, and I need their TBIL values.
One number for each entry, in mg/dL.

Please go through the list and note TBIL for each molecule.
1. CCc1cc(C(N)=S)ccn1 [ETHIONAMIDE]
2. C[C@H](CS)C(=O)N1CCC[C@H]1C(=O)O
3. Clc1ccccc1CN1CCc2sccc2C1
4. O=C(O)c1cn(C2CC2)c2cc(N3CCNCC3)c(F)cc2c1=O

Return:
1: 0.5; 2: 0.5; 3: 0.1; 4: 0.3

Enquiry: Request the reported TBIL associated with `O=C(O)c1cc(/N=N/c2ccc(S(=O)(=O)Nc3ccccn3)cc2)ccc1O`
Return: 0.1

---

So I've got a bunch of compounds here, and I need their Ht values.
Organism: Rattus norvegicus
assay-procedure: Open TG-GATES - Regimen: Single
Assay type: toxicity, organism-based, Sprague-Dawley
Set-up: regimen Single, gender Male, age 6 weeks
assay-context: in vivo, po, 1000 mg/kg, 9 h, tissue Blood, route gavage, dose level High
Give bare numbers, in %.

Please go through the list and note Ht for each compound.
1. CCc1cc(C(N)=S)ccn1 [ETHIONAMIDE]
2. O=C(O)c1cn(C2CC2)c2cc(N3CCNCC3)c(F)cc2c1=O
3. C[C@H](CS)C(=O)N1CCC[C@H]1C(=O)O
4. Clc1ccccc1CN1CCc2sccc2C1
5. O=C(O)c1cc(/N=N/c2ccc(S(=O)(=O)Nc3ccccn3)cc2)ccc1O

Return:
1. 41.3
2. 39.9
3. 38.9
4. 38.4
5. 38.4

---

Organism: Rattus norvegicus
assay-procedure: Open TG-GATES - Regimen: Single
Assay type: toxicity, organism-based, Sprague-Dawley
Set-up: regimen Single, gender Male, age 6 weeks
assay-context: in vivo, po, 100 mg/kg, 9 h, tissue Plasma, route gavage, dose level Low
value-type: K (meq/L)
Numbers only, in meq/L.

Some solved entries appear below for comparison.
INSERT INTO assay_data (compound, numeric_value) VALUES
  ('CCc1cc(C(N)=S)ccn1 [ETHIONAMIDE]', 4.5),
  ('Clc1ccccc1CN1CCc2sccc2C1', 3.8),
  ('C[C@H](CS)C(=O)N1CCC[C@H]1C(=O)O', 4.7),
  ('O=C(O)c1cn(C2CC2)c2cc(N3CCNCC3)c(F)cc2c1=O', 4.9);

Here is the next item to consider.
Enquiry: Request the reported K associated with `O=C(O)c1cc(/N=N/c2ccc(S(=O)(=O)Nc3ccccn3)cc2)ccc1O`
Return: 3.8

---

So I've got a bunch of compounds here, and I need their TERMINAL_BW values.
Species on record: Rattus norvegicus
assay-procedure: Open TG-GATES - Regimen: Single
Format: toxicity, organism-based, Sprague-Dawley
Set-up: regimen Single, gender Male, age 6 weeks
assay-context: in vivo, po, 100 mg/kg, 9 h, route gavage, dose level Low

Some solved entries appear below for comparison.
INSERT INTO measurements (compound, result) VALUES
  ('Clc1ccccc1CN1CCc2sccc2C1', '208 g'),
  ('CCc1cc(C(N)=S)ccn1 [ETHIONAMIDE]', '222.6 g'),
  ('O=C(O)c1cn(C2CC2)c2cc(N3CCNCC3)c(F)cc2c1=O', '174.2 g'),
  ('C[C@H](CS)C(=O)N1CCC[C@H]1C(=O)O', '220.6 g');

Here is the next item to consider.
Enquiry: Request the reported TERMINAL_BW associated with `O=C(O)c1cc(/N=N/c2ccc(S(=O)(=O)Nc3ccccn3)cc2)ccc1O`
Return: 204.7 g
